Cited source: patent US20120135923A1

EXPERIMENTAL_SYSTEM: human melanocortin receptor subtype 1 (hMC1-R) (human), Q01726
Sequence (Q01726 whole entry): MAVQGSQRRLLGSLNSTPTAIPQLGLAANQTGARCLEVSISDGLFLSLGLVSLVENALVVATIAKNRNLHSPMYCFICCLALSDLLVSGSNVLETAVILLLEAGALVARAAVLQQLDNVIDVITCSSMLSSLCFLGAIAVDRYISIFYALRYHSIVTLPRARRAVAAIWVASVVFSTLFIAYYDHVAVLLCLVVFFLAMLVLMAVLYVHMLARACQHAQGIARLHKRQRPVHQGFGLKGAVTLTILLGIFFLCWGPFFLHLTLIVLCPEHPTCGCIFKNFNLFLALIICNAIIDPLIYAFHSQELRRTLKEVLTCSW
EXPERIMENT: [125I]-NDP-α-MSH competition, membranes
Bridge positions count the residues as written; N and C are the ends. Square brackets hold non-standard residues; d marks the D form. Ends that are not written are not given here. 1Nal = N[C@@H](Cc1cccc2ccccc12)C(=O)O; 2Nal = N[C@@H](Cc1ccc2ccccc2c1)C(=O)O; d2Nal = N[C@H](Cc1ccc2ccccc2c1)C(=O)O; Bta = N[C@@H](Cc1csc2ccccc12)C(=O)O
pKi by entry:
Scale: pKi equals -log10([C]), with [C] in mol/L.

Sample records with pKi:
BINDER	pKi
Ac-CEH[d2Nal]R[Bta]ACPPKD-NH2 (disulfide 1-8; SMILES CC(=O)N[C@H]1CSSC[C@@H](C(=O)N2CCC[C@H]2C(=O)N2CCC[C@H]2C(=O)N[C@@H](CCCCN)C(=O)N[C@@H](CC(=O)O)C(N)=O)NC(=O)[C@H](C)NC(=O)[C@H](Cc2csc3ccccc23)NC(=O)[C@H](CCCNC(=N)N)NC(=O)[C@@H](Cc2ccc3ccccc3c2)NC(=O)[C@H](Cc2c[nH]cn2)NC(=O)[C@H](CCC(=O)O)NC1=O) [Ac-c(Cys-Glu-His-D-2-Nal-Arg-Bal-Ala-Cys)-Pro-Pro-Lys-Asp-NH2]	6.79
Ac-CEH[d2Nal]R[1Nal]ACPPKD-NH2 (disulfide 1-8; SMILES CC(=O)N[C@H]1CSSC[C@@H](C(=O)N2CCC[C@H]2C(=O)N2CCC[C@H]2C(=O)N[C@@H](CCCCN)C(=O)N[C@@H](CC(=O)O)C(N)=O)NC(=O)[C@H](C)NC(=O)[C@H](Cc2cccc3ccccc23)NC(=O)[C@H](CCCNC(=N)N)NC(=O)[C@@H](Cc2ccc3ccccc3c2)NC(=O)[C@H](Cc2c[nH]cn2)NC(=O)[C@H](CCC(=O)O)NC1=O) [Ac-c(Cys-Glu-His-D-2-Nal-Arg-1-Nal-Ala-Cys)-Pro-Pro-Lys-Asp-NH2]	6.91
Ac-CEH[d2Nal]R[2Nal]ACPPKD-NH2 (disulfide 1-8; SMILES CC(=O)N[C@H]1CSSC[C@@H](C(=O)N2CCC[C@H]2C(=O)N2CCC[C@H]2C(=O)N[C@@H](CCCCN)C(=O)N[C@@H](CC(=O)O)C(N)=O)NC(=O)[C@H](C)NC(=O)[C@H](Cc2ccc3ccccc3c2)NC(=O)[C@H](CCCNC(=N)N)NC(=O)[C@@H](Cc2ccc3ccccc3c2)NC(=O)[C@H](Cc2c[nH]cn2)NC(=O)[C@H](CCC(=O)O)NC1=O) [Ac-c(Cys-Glu-His-D-2-Nal-Arg-2-Nal-Ala-Cys)-Pro-Pro-Lys-Asp-NH2]	7.06
GRC[dA]H[dF]RWC-NH2 (disulfide 3-9; also: hydantoin ring from C(O) with Gly1-Arg2) [Hydantoin(C(O)-(Gly-Arg))-c(Cys-D-Ala-His-D-Phe-Arg-Trp-Cys)-NH2]	8.94

Data request: Return reported pKi. Input binder: Ac-WRC[dA]H[dF]RWC-NH2 (disulfide 3-9; SMILES CC(=O)N[C@@H](Cc1c[nH]c2ccccc12)C(=O)N[C@@H](CCCNC(=N)N)C(=O)N[C@H]1CSSC[C@@H](C(N)=O)NC(=O)[C@H](Cc2c[nH]c3ccccc23)NC(=O)[C@H](CCCNC(=N)N)NC(=O)[C@@H](Cc2ccccc2)NC(=O)[C@H](Cc2c[nH]cn2)NC(=O)[C@@H](C)NC1=O) [Ac-Trp-Arg-c(Cys-D-Ala-His-D-Phe-Arg-Trp-Cys)-NH2]
Data returned: 8.33

Data request: Return reported pKi. Input binder: AGC[dA]H[dF]RWC-NH2 (disulfide 3-9; also: hydantoin ring: C(O) bridging Ala-Gly) [Hydantoin(C(O)-(Ala-Gly))-c(Cys-D-Ala-His-D-Phe-Arg-Trp-Cys)-NH2]
Data returned: 7.86
